- Test system: 4T1
- methodDescription: Crystal violet (CV) cell viability assay, IC50 determination
- Assay type: cell-based
- measurementSetup: Mus musculus, 72 h treatment, mean ± SD
Entries annotated with measured IC50
State the answer as a number, implicitly in µM.

[
  {
    "compound": "O=c1[nH]c(Nc2ccc([N+](=O)[O-])cc2)nc2ccccc12 [Compound 19, 4′-nitro-9-aza-glycophymine]",
    "resultNumber": 12.5
  },
  {
    "compound": "O=c1[nH]c(Nc2ccc(Cl)cc2)nc2ccccc12 [Compound 22]",
    "resultNumber": 23.5
  },
  {
    "compound": "O=c1[nH]c(Nc2ccccc2)nc2ccc([N+](=O)[O-])cc12 [Compound 47]",
    "resultNumber": 12.6
  },
  {
    "compound": "O=c1[nH]c(Nc2ccccc2)nc2cc([N+](=O)[O-])ccc12 [Compound 46]",
    "resultNumber": 7.9
  }
]

Let's switch to this compound now.
Return IC50 measured with 4T1 given this compound: O=c1[nH]c(Nc2ccc(Cc3ccc([N+](=O)[O-])cc3[N+](=O)[O-])cc2)nc2ccccc12 [Compound 24]
11.3
